B1: PTPN9 (parent)
chain: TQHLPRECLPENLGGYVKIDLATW

Variants of: B1
assay.text: protein stability index of a GFP-peptide fusion (GPS, HEK-293T) (PSI 1-6); higher = more stable;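 note: lentivirally expressed fusions sorted by FACS into six bins by GFP to DsRed ratio, PSI derived from sequencing read proportions per bin multiplied by bin number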
condition.parameters: c terminus: a fixed tail appended
Threshold check on protein stability index: at or above 2 gives criterion met, strictly below gives criterion not met.

[
  {
    "variant.string": "L13E",
    "qualitative.label": "criterion met"
  },
  {
    "variant.string": "L9K",
    "qualitative.label": "criterion met"
  },
  {
    "variant.string": "K18P",
    "qualitative.label": "criterion met"
  },
  {
    "variant.string": "R6A",
    "qualitative.label": "criterion met"
  },
  {
    "variant.string": "R6G",
    "qualitative.label": "criterion met"
  },
  {
    "variant.string": "L21H",
    "qualitative.label": "criterion met"
  },
  {
    "variant.string": "T1L",
    "qualitative.label": "criterion not met"
  },
  {
    "variant.string": "G15M",
    "qualitative.label": "criterion met"
  },
  {
    "variant.string": "P5Q",
    "qualitative.label": "criterion not met"
  },
  {
    "variant.string": "V17I",
    "qualitative.label": "criterion met"
  }
]

Please look at the following variant next.
Exam item: Record "G15Y" ; criterion: protein stability index no lower than 2. Met?
Marked response: criterion met
